Provenance of the data: patent US20180024136A1

assay: Spectroscopic properties of CF library (absorbance, emission, quantum yield, extinction coefficient); format: physicochemical; conditions: 100 μM in ethanol
Can you tell me Em (nm) for the items I'm about to list?
Numbers only, in nm.

Solved entries:
>  <COMPOUND>
CCCCCCNC(=O)c1ccc(-c2c3cc(Cl)c(=O)cc-3oc3cc(O)c(Cl)cc23)cc1 [CF-H4]

>  <ENDPOINT>
Em (nm)

>  <UNITS_SYMBOL>
nm

>  <QUANTITATIVE_RESULT>
556

$$$$
>  <COMPOUND>
CCCCCCN(C)C(=O)c1ccc(-c2c3cc(Cl)c(=O)cc-3oc3cc(O)c(Cl)cc23)cc1 [CF-F10]

>  <ENDPOINT>
Em (nm)

>  <UNITS_SYMBOL>
nm

>  <QUANTITATIVE_RESULT>
559

$$$$
>  <COMPOUND>
CCCCCNC(=O)c1ccc(-c2c3cc(Cl)c(=O)cc-3oc3cc(O)c(Cl)cc23)cc1 [CF-G10]

>  <ENDPOINT>
Em (nm)

>  <UNITS_SYMBOL>
nm

>  <QUANTITATIVE_RESULT>
558

$$$$
>  <COMPOUND>
CC(C)CCNC(=O)c1ccc(-c2c3cc(Cl)c(=O)cc-3oc3cc(O)c(Cl)cc23)cc1 [CF-C8]

>  <ENDPOINT>
Em (nm)

>  <UNITS_SYMBOL>
nm

>  <QUANTITATIVE_RESULT>
558

$$$$

Hey, can you go through the list below and give me Em (nm) for every item?
1. CCCCCCCCCCCCCCNC(=O)c1ccc(-c2c3cc(Cl)c(=O)cc-3oc3cc(O)c(Cl)cc23)cc1 [CF-A2]
2. O=C(NC1CC1)c1ccc(-c2c3cc(Cl)c(=O)cc-3oc3cc(O)c(Cl)cc23)cc1 [CF-B2]
3. O=C(NCCCCc1ccccc1)c1ccc(-c2c3cc(Cl)c(=O)cc-3oc3cc(O)c(Cl)cc23)cc1 [CF-D11]

1: 558; 2: 558; 3: 558

Hey, can you go through the list below and give me Em (nm) for every item?
1. O=C(NCCCN1CCCC1=O)c1ccc(-c2c3cc(Cl)c(=O)cc-3oc3cc(O)c(Cl)cc23)cc1 [CF-D2]
2. CCCCCN(CCCCC)C(=O)c1ccc(-c2c3cc(Cl)c(=O)cc-3oc3cc(O)c(Cl)cc23)cc1 [CF-G3]
3. O=C(NCCC(c1ccccc1)c1ccccc1)c1ccc(-c2c3cc(Cl)c(=O)cc-3oc3cc(O)c(Cl)cc23)cc1 [CF-D10]
4. CC(C)C(C)NC(=O)c1ccc(-c2c3cc(Cl)c(=O)cc-3oc3cc(O)c(Cl)cc23)cc1 (stereo not shown) [CF-E6]
5. CCCCCCCCCCCCCNC(=O)c1ccc(-c2c3cc(Cl)c(=O)cc-3oc3cc(O)c(Cl)cc23)cc1 [CF-A4]
6. O=C(NC1CCCCC1)c1ccc(-c2c3cc(Cl)c(=O)cc-3oc3cc(O)c(Cl)cc23)cc1 [CF-A9]

1: 557; 2: 552; 3: 558; 4: 557; 5: 558; 6: 557

Hey, can you go through the list below and give me Em (nm) for every item?
1. Cc1ccc(CCNC(=O)c2ccc(-c3c4cc(Cl)c(=O)cc-4oc4cc(O)c(Cl)cc34)cc2)cc1 [CF-C10]
2. COCCNC(=O)c1ccc(-c2c3cc(Cl)c(=O)cc-3oc3cc(O)c(Cl)cc23)cc1 [CF-B3]
3. CCCCCCCCCCCCCCCCCCNC(=O)c1ccc(-c2c3cc(Cl)c(=O)cc-3oc3cc(O)c(Cl)cc23)cc1 [CF-D6]

1. 558
2. 557
3. 555
